The entries below come with measured IC50 values attached.
assay.protocol: WHO-TDR: Cytotoxicity
Type: toxicity, cell-based
condition.context: human, MRC5 cells

Worked cases, IC50 given:
- COc1cccc(-c2cn3c(C(=O)N4CCN(c5ccccc5OC)CC4)csc3n2)c1: 2.13 µg/mL
- COc1cc(C(=O)Nc2ccc3c(c2)N(C(=O)c2ccco2)CC3)cc(OC)c1OC: 2.08 µg/mL

Per the record, COc1ccccc1CCNC(=O)CCc1csc(NC(=O)c2cccs2)n1 has IC50 of 5.79 µg/mL

Per the record, O=C(C1CCCC1)N1CCN(c2ccc(-c3ccccn3)nn2)CC1 has IC50 of 4.9 µg/mL

Per the record, O=S(=O)(c1ccc2ccccc2c1)N1CCN(c2ccc(Nc3cccnc3)nn2)CC1 has IC50 of > 13.4 µg/mL

Per the record, O=C(CSc1ccc(F)cc1)N(CCCn1ccnc1)c1nc2c(F)cccc2s1 has IC50 of > 14.4 µg/mL

Per the record, O=C(Nc1nnc(-c2ccc(Br)s2)o1)C1CCCN1S(=O)(=O)c1cccs1 (centres undefined) has IC50 of > 14.7 µg/mL

Per the record, CN(C)c1ccc(NC(=O)Cc2csc(SCc3ccncc3)n2)cc1 has IC50 of > 11.5 µg/mL

---

The entries below come with measured IC50 values attached.
assay.protocol: WHO-TDR: Cytotoxicity
Type: toxicity, cell-based
condition.context: human, MRC5 cells
// units = µg/mL; emit number, no label

Worked cases, IC50 given:
- Cc1ccc(C)c(-c2csc(NC(=O)CCCS(=O)(=O)c3ccc(F)cc3)n2)c1: 0.999
- Cc1cc(=O)[nH]c(-n2nc(C)cc2NC(=O)/C=C/c2ccc3c(c2)OCO3)n1: 3.73
- O=C(Nc1nc(-c2ccccn2)cs1)c1ccc(Cl)s1: 4.39

We next turn to a different molecule, shown below.
Per the record, CN(C)CCCN(C(=O)c1ccc(Br)s1)c1nc2cc3c(cc2s1)OCCO3 has IC50 of 3.06

---

Test system: Schistosoma mansoni
assay.protocol: WHO-TDR: Schistosomiasis
Format: functional
Parameters: concentration or dose not given beside the values
measure.name: % Inhibition (%)
// units = %; emit number, no label

Worked cases, % Inhibition given:
- COc1cccc2sc(Nc3nc4ccc(NC(C)=O)cc4s3)nc12: 0
- CCSc1nc(-c2ccccc2)c(NC(C)=O)s1: 0
- CCc1ccc2nc(N(CCCn3ccnc3)C(=O)/C=C/c3cccs3)sc2c1: 0
- CC(C)(C)c1ccc(-c2csc(NC(=O)c3ccc4ncsc4c3)n2)cc1: 0
- Cc1ccc(C)c(-c2csc(NC(=O)CCCS(=O)(=O)c3ccc(F)cc3)n2)c1: 0

Per the record, O=C(CSc1nc(CC(=O)N2CCN(c3ccccc3F)CC2)cs1)Nc1ccc(F)cc1 has % Inhibition of 0

Per the record, CC(C)CCN1C(=O)CCc2cc(NC(=O)c3cccc(Br)c3)ccc21 has % Inhibition of 0

Per the record, Cc1ccc2sc(N(Cc3cccnc3)C(=O)CSc3ccccc3)nc2c1C has % Inhibition of 0

Per the record, Cc1onc(-c2ccccc2Cl)c1C(=O)Nc1nnc(SCC(=O)Nc2ccc3c(c2)OCO3)s1 has % Inhibition of 0

Per the record, CC(=O)N1CCc2ccc(NC(=O)c3ccc(C(C)(C)C)cc3)cc21 has % Inhibition of 16.7

Per the record, O=C(c1ccccc1F)N1CCN(c2ccc(-c3ccccn3)nn2)CC1 has % Inhibition of 100

Per the record, CN1CCCc2cc(C(CNC(=O)c3cccs3)N3CCCCC3)ccc21 (stereo unspecified) has % Inhibition of 0

---

Test system: Leishmania infantum
assay.protocol: WHO-TDR: Leishmaniasis
Assay type: functional, organism-based, Mus musculus
condition.context: Macrophage
measure.name: IC50

Worked cases, IC50 given:
- CC1CCN(C(C)CNC(=O)Nc2cccc(Cl)c2)CC1 (stereo not given): 4.81 µg/mL
- CCN(CC)c1cc(C)nc(Nc2ccc(NC(=O)c3cccs3)cc2)n1: 3.7 µg/mL
- O=C(Nc1ccc(F)cc1)Nc1nc(C(=O)N2CCN(c3ccccc3F)CC2)cs1: > 13.3 µg/mL

We next turn to a different compound, shown below.
Per the record, COc1ccc(OC)c(-c2csc(NC(=O)Cc3ccc(SC)cc3)n2)c1 has IC50 of > 12 µg/mL

---

Test system: Leishmania infantum
assay.protocol: WHO-TDR: Leishmaniasis
Type: functional, organism-based, Mus musculus
condition.context: Macrophage
The entries below come with measured IC50 values attached.
// units = µg/mL; emit number, no label

Worked cases, IC50 given:
- O=C(CC1CCCC1)N1CCN(c2ccc(-c3ccccn3)nn2)CC1: 0.341
- O=C(Nc1ccc(SCC(=O)N2CCc3ccccc32)nn1)c1ccccc1F: 0.397
- CN(C)CCCN(C(=O)CCOc1ccccc1)c1nc2cc3c(cc2s1)OCO3: 0.451

We next turn to a different compound, shown below.
Per the record, Cc1cc(=O)[nH]c(-n2nc(C)cc2NC(=O)c2c(F)cccc2Cl)n1 has IC50 of 5.62

---

System: Schistosoma mansoni
assay.protocol: WHO-TDR: Schistosomiasis
Format: functional
Design: concentration or dose not given beside the values
measure.name: % Inhibition (%)
// units = %; emit number, no label

Worked cases, % Inhibition given:
- O=C(Nc1nc(-c2ccncc2)cs1)C1CCCN(S(=O)(=O)c2ccc(Cl)s2)C1 (stereo unspecified): 0
- CCN1CCc2c(sc(NC(=O)c3ccc(S(=O)(=O)N4CC5(C)CC4CC(C)(C)C5)cc3)c2C(N)=O)C1 (stereo unspecified): 0
- CN(C)CCCN(C(=O)c1ccc(N(C)C)cc1)c1nc2ccc(F)cc2s1: 0
- CCn1nnc2c(N3CCN(C(c4ccccc4)c4ccccc4)CC3)ncnc21: 0
- COc1cccc(C(=O)Nc2nnc(-c3ccc4c(c3)CCCC4)o2)c1: 25

We next turn to a different compound, shown below.
Per the record, CN(CC1CCCO1)S(=O)(=O)c1ccc(C(=O)Nc2nc3cc4c(cc3s2)OCCO4)cc1 (stereo unspecified) has % Inhibition of 100

---

The entries below come with measured IC50 values attached.
Test system: Leishmania infantum
assay.protocol: WHO-TDR: Leishmaniasis
Type: functional, organism-based, Mus musculus
condition.context: Macrophage

Per the record, O=c1ccc(-c2ccncc2)nn1CCCNS(=O)(=O)c1ccc2c(c1)CCCC2 has IC50 of > 12.7 µg/mL

Per the record, O=C(Nc1nc(-c2ccc3c(c2)OCCO3)cs1)C1CCN(S(=O)(=O)c2ccc(Cl)cc2)CC1 has IC50 of > 15.6 µg/mL

Per the record, CCN(CC)CCSc1ccc(-c2sc(-c3ccc(F)cc3)nc2C)nn1 has IC50 of 3.82 µg/mL

Per the record, CSc1nc(NC(C)C)c2cnn(CCNC(=O)COc3ccc(Cl)cc3)c2n1 has IC50 of > 13 µg/mL

Per the record, CCSc1nnc2ccc(-c3ccc(CC)cc3)nn12 has IC50 of > 8.53 µg/mL

---

The entries below come with measured IC50 values attached.
assay.protocol: WHO-TDR: Cytotoxicity
Assay type: toxicity, cell-based
condition.context: human, MRC5 cells
// units = µg/mL; emit number, no label

Worked cases, IC50 given:
• COc1ccc(OC)c2sc(N(CCCn3ccnc3)C(=O)COc3ccccc3)nc12 = 4.9
• COc1ccc(C(=O)C[n+]2cc(-c3ccc(OC)cc3)n3c2CCCCC3)cc1 = 0.572

Per the record, COc1cccc(C(=O)N2CCN(c3ccc(-c4ccccn4)nn3)CC2)c1OC has IC50 of 5.68

Per the record, COc1ccc(-c2cn3c(C(=O)Nc4ccc(OC(F)(F)F)cc4)csc3n2)cc1 has IC50 of 1.79

---

System: Plasmodium falciparum K1
assay.protocol: WHO-TDR: Malaria
Type: functional, organism-based, Homo sapiens
condition.context: Erythrocyte
measure.name: IC50

Worked cases, IC50 given:
• COc1ccc(OC)c2sc(N(CC3CCCO3)C(=O)c3ccn(C)n3)nc12 (stereo not given) = > 12.1 µg/mL
• O=C(Nc1nnc(-c2ccc3c(c2)CCCC3)o1)c1cc(Cl)sc1Cl = > 11.8 µg/mL

Per the record, O=C(Cc1csc(Nc2ccccc2)n1)NCCc1c[nH]c2ccccc12 has IC50 of > 11.3 µg/mL

Per the record, O=C(Cc1ccccc1)Nc1nnc(SCC(=O)NC2CCCC2)s1 has IC50 of 0.609 µg/mL

Per the record, CCOC(=O)c1c(NC(=O)C(C)n2c(-n3nc(C)cc3C)nc(CC)cc2=O)sc2c1CCC2 (stereo not given) has IC50 of 2.96 µg/mL

Per the record, CCOCC(=O)Nc1ccc(-c2nnc(N(C)c3ccc(OC)cc3)s2)cc1 has IC50 of > 12 µg/mL

Per the record, COc1ccccc1CCNC(=O)CCc1csc(NC(=O)c2cccs2)n1 has IC50 of > 12.5 µg/mL

Per the record, COc1ccc(Cl)cc1C(=O)NCCOc1ccc2nnc(-c3ccc(F)cc3)n2n1 has IC50 of > 13.3 µg/mL

Per the record, C#CCn1/c(=N/C(=O)CN2C(=O)c3ccccc3C2=O)sc2c3ccccc3ccc21 has IC50 of > 11.4 µg/mL

Per the record, Cc1ccccc1OCC(=O)NCCS(=O)(=O)N1CCN(Cc2ccccc2)CC1 has IC50 of > 14 µg/mL
